These measurements were taken from patent US7772252B2.

- Tested system: cloned human dopamine D3 receptors (Homo sapiens, UniProt P35462)
- Construct: expressed in transfected cells; membrane homogenate
- Sequence (P35462 whole entry): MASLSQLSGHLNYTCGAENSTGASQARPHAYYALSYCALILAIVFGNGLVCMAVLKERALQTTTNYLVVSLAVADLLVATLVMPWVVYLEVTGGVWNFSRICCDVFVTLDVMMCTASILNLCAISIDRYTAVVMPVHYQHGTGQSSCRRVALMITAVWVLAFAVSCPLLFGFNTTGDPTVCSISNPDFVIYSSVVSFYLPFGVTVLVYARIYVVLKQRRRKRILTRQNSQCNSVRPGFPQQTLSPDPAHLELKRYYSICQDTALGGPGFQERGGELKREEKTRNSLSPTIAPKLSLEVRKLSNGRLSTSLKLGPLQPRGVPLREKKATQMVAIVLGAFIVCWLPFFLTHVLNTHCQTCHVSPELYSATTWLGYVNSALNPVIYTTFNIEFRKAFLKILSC
- Test protocol: [N-Methyl-3H]Spiroperidol binding to cloned human dopamine D3 receptors
- Protocol conditions: read-out: D3 Ki
Assign a class from recorded Ki; defined classes: b0: < 1 nM; b1: ≥ 1 nM and < 30 nM; b2: ≥ 30 nM

Input: Hello team, could you let me know which band the following compound falls into: COc1ccccc1CN1CCC(NC(=O)[C@@H]2C[C@H]2CN2CCC(c3noc4ccsc34)CC2)CC1 [compound 832724]
Output: b1

Input: Hello team, could you let me know which band the following compound falls into: COc1ccc2c(c1)c(N1CCN(C[C@@H]3C[C@H]3C(=O)N(C)C3CCN(C)CC3)CC1)nn2C [compound 832745]
Output: b1

Input: Hello team, could you let me know which band the following compound falls into: COc1ccc2c(c1)c(N1CCN(C[C@@H]3C[C@H]3C(=O)N[C@H]3CC[C@H](C)CC3)CC1)nn2C [compound 831768]
Output: b0

Input: Hello team, could you let me know which band the following compound falls into: O=C(NCCNc1ccccc1)C1CC1CN1CCC(c2noc3ccsc23)CC1 (racemic) [compound 831603]
Output: b1

Input: Hello team, could you let me know which band the following compound falls into: Cc1cccc(CN2CCN(C(=O)C3CC3CN3CCC(c4noc5ccsc45)CC3)CC2)c1 (racemic) [compound 832158]
Output: b0

* * *

- Tested system: cloned human dopamine D3 receptors (Homo sapiens, UniProt P35462)
- Construct: expressed in transfected cells; membrane homogenate
- Test protocol: [N-Methyl-3H]Spiroperidol binding to cloned human dopamine D3 receptors
- Protocol conditions: read-out: D3 Ki
Experimental endpoint: Ki (nM)
# number only, unit nM dropped from output

Recorded results for 5 compounds are shown here.
>>> readout_number("Cn1nc(C2CCN(C[C@@H]3C[C@H]3C(=O)N3CCC[C@@H](Cn4ccnc4)C3)CC2)c2ccc(C(F)(F)F)cc21")
0.937
>>> readout_number("O=C(NCc1cccc(OC(F)(F)F)c1)[C@@H]1C[C@H]1CN1CCN(c2csc3cc(C(F)(F)F)ccc23)CC1")
55.4
>>> readout_number("O=C(C1CC1CN1CCC(c2noc3ccsc23)CC1)N1CCN(Cc2ccc(Cl)c(Cl)c2)CC1 (racemic)")
0.861
>>> readout_number("O=C([C@@H]1C[C@H]1CN1CCC(c2noc3ccsc23)CC1)N1CCC(Cc2ccccc2)CC1")
5.06
>>> readout_number("O=C(NCCS(=O)(=O)c1cccc2c(Cl)cccc12)C1CC1CN1CCC(c2noc3ccsc23)CC1 (racemic)")
16.4

Input: Given the entry CCN1CCC(NC(=O)C2CC2CN2CCC(c3noc4ccsc34)CC2)CC1 (racemic) , report its measured Ki.
Output: 1.04

Input: Given the entry O=C(NC1CC1)[C@@H]1C[C@H]1CN1CCC(c2noc3ccsc23)CC1 , report its measured Ki.
Output: 158

Input: Given the entry C[C@H]1CC[C@H](NC(=O)[C@@H]2C[C@H]2CN2CCC(c3n[nH]c4ccc(C(F)(F)F)cc34)CC2)CC1 , report its measured Ki.
Output: 0.633

* * *

- Tested system: cloned human dopamine D3 receptors (Homo sapiens)
- Construct: expressed in transfected cells; membrane homogenate
- Test protocol: [N-Methyl-3H]Spiroperidol binding to cloned human dopamine D3 receptors
- Protocol conditions: read-out: D3 Ki
log10 of Ki for assorted molecules
// stored as log10 of Ki expressed in nM

Recorded results for 10 molecules are shown here.
>>> readout_number("N=C(N)N1CCC(CNC(=O)[C@@H]2C[C@H]2CN2CCN(c3csc4cc(C(F)(F)F)ccc34)CC2)CC1")
0.56
>>> readout_number("Cc1ccc2c(c1)c(C1CCN(C[C@@H]3C[C@H]3C(=O)NC3C4CCC3CN(C)C4)CC1)nn2C (some centres unmarked)")
1.43
>>> readout_number("CC1CCC(NC(=O)C2CC2CN2C3CCC2CC(c2n[nH]c4ccccc24)C3)CC1 (centres unmarked)")
1.66
>>> readout_number("O=C(NCCCN1CCOCC1)C1(CCN2CCN(c3csc4cc(C(F)(F)F)ccc34)CC2)CC1")
1.99
>>> readout_number("COc1ccc2c(c1)c(N1CCN(C[C@@H]3C[C@H]3C(=O)N3CCN(Cc4ccc(C)cc4)CC3)CC1)nn2C")
1.85
>>> readout_number("O=C(NCCCc1nc2ccccc2[nH]1)C1CC1CN1CCC(c2noc3ccsc23)CC1 (racemic)")
1.54
>>> readout_number("O=C(NC1CCN(Cc2cccc(Cl)c2)CC1)C1CC1CN1CCC(c2noc3ccsc23)CC1 (racemic)")
0.67
>>> readout_number("O=C([C@@H]1C[C@H]1CN1CCN(c2csc3cc(C(F)(F)F)ccc23)CC1)N1CCN(Cc2ccc(Cl)c(Cl)c2)CC1")
2.04
>>> readout_number("O=C([C@@H]1C[C@H]1CN1CCC(c2noc3ccsc23)CC1)N1CCC(n2ccnc2)CC1")
1.72
>>> readout_number("C=CCN1CCN(C(=O)C2CC2CN2CCC(c3noc4ccsc34)CC2)CC1 (racemic)")
1.77

Input: Given the entry O=C(NC[C@@H]1CCNC1)[C@@H]1C[C@H]1CN1CCC(c2noc3ccsc23)CC1 , report its measured log10 of Ki.
Output: 0.75

Input: Given the entry O=C([C@@H]1C[C@H]1CN1CCC(c2noc3ccsc23)CC1)N1CCN(c2ccccn2)CC1 , report its measured log10 of Ki.
Output: 2.04

Input: Given the entry O=C([C@@H]1C[C@H]1CN1CCN(c2csc3cc(C(F)(F)F)ccc23)CC1)N1CCC[C@H](CO)C1 , report its measured log10 of Ki.
Output: 1.11

Input: Given the entry O=C(C1CC1CN1CCC(c2noc3ccsc23)CC1)N1CCN(c2ncccn2)CC1 (racemic) , report its measured log10 of Ki.
Output: 2.59
